study target: T1, recombinant rat CTGF protein (R&D Systems) (rat, UniProt Q9R1E9 25-347)
T1 construct: Bought; also called rCTGF
T1 sequence: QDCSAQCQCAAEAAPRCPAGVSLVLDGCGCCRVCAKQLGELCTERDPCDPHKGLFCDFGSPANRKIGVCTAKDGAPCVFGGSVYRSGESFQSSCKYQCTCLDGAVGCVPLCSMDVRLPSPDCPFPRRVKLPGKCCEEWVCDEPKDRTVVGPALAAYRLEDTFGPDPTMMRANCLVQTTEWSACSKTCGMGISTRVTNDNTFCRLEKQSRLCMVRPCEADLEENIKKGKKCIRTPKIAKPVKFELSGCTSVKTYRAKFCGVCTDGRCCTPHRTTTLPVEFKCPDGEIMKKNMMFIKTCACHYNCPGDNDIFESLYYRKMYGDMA
assay method text: SPR (Biacore)
reported property: kon

Request: Any idea what its kon is? The binder is lipocalin mutein of SEQ ID NO: 33 (designed binder, also called hNGAL mutein; not shown: C-terminal His-tag) QDSTSDLIPAPPLSKVPLQQNFQDNQFQGKWYVVGWAGNAKLREDKQPFKMSATIYELKEDKSYDVTEVVFEQKKCHYIIKTFVPGSQPGEFTEGNYKRRPRLWSDLVRVVSTNYNQHAMVFFKKVHQNREFFWITLYGRTKELTSELKENFIRFSKSLGLPENHIVFPVPIDQCIDG
Result: 279000 M⁻¹ s⁻¹
